target-system: Cytochrome P450 2C19 (Homo sapiens) (UniProt P33261)
Sequence (P33261 whole entry, looked up): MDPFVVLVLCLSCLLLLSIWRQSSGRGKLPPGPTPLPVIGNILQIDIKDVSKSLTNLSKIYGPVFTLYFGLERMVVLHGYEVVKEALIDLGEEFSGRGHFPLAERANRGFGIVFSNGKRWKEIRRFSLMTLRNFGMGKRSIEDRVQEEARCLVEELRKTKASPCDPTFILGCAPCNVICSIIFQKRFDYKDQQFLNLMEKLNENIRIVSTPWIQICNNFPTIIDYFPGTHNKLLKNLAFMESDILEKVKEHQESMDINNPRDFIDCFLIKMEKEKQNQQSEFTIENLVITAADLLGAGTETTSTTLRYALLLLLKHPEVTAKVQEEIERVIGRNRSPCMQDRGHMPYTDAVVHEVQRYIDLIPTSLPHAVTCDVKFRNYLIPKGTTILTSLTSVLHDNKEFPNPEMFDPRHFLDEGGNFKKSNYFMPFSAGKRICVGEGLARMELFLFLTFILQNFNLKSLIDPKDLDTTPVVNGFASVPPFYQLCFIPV
test-name: Cytochrome panel assay with activity outcomes
test-conditions: recombinant CYP, pro-luciferin dealkylation, luminescence, p450-cyp2c19; series mostly up to 57.1 µM
The campaign covered roughly 16,000 compounds. About 5,800 (36%) were called active. Inconclusive results (about 23%) are left out. The call rests on the fitted dose curve; in most records, active means well fitted curve in the direction sought with a large enough effect; inconclusive means small, poorly fitted or top-dose-only effect, or effect the other way; inactive means no such curve, though single readings can be large or run the other way. The list shows a part of the results.
Outcome field: choose from active, inactive

compound | target-system | classification
O=C(O)c1ccccc1N[C@H](c1ccccc1)c1ccc2cccnc2c1O | Cytochrome P450 2C19 (Homo sapiens) (UniProt P33261) | active

Enquiry: What did this assay record as the result for `CC(=O)C[C@H](c1ccc([N+](=O)[O-])cc1)c1c(O)c2ccccc2oc1=O` ?
Return: inactive

Enquiry: What did this assay record as the result for N#Cc1ccc(C(c2nnnn2C2CCCC2)N2CCC(Cc3ccccc3)CC2)cc1 (centres undefined) ?
Return: active

Enquiry: What did this assay record as the result for `CN1CCCN([C@@H](c2ccccc2)c2ccc(Cl)cc2)CC1` ?
Return: inactive
